I'd appreciate it if you could supply interaction score values for the items below.
target-under-test: T1, 4H2931-bN
T1 chain: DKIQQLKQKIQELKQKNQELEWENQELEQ
protocol-details: two-hybrid library CCNG1;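 also: natural log of median RNA to DNA barcode read ratio; higher means stronger binding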

Tell me the measured interaction score of DKIQQLEQENQELKQEIQELKWKIQELEQ [4H2253-bN] , please.
-0.437

Tell me the measured interaction score of DKIQQLKQENQELKQEIQELEWKNQELKQ [4H2760-bN] , please.
-0.107

Tell me the measured interaction score of DKIQQLEQENQELEQKNQELKWEIQELEQ [4H2233-bN] , please.
-0.485

Tell me the measured interaction score of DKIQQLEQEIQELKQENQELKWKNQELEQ [4H2143-bN] , please.
-0.53

Tell me the measured interaction score of DKIQQLEQKNQELKQENQELEWKIQELKQ [4H2518-bN] , please.
-0.539
